Source listed as patent US9586965B2.

# TARGET_DESC: EGFR (pY1068) in A431 cell (WT) (Homo sapiens (Human), UniProt P00533)
# Sequence (P00533 25-1210): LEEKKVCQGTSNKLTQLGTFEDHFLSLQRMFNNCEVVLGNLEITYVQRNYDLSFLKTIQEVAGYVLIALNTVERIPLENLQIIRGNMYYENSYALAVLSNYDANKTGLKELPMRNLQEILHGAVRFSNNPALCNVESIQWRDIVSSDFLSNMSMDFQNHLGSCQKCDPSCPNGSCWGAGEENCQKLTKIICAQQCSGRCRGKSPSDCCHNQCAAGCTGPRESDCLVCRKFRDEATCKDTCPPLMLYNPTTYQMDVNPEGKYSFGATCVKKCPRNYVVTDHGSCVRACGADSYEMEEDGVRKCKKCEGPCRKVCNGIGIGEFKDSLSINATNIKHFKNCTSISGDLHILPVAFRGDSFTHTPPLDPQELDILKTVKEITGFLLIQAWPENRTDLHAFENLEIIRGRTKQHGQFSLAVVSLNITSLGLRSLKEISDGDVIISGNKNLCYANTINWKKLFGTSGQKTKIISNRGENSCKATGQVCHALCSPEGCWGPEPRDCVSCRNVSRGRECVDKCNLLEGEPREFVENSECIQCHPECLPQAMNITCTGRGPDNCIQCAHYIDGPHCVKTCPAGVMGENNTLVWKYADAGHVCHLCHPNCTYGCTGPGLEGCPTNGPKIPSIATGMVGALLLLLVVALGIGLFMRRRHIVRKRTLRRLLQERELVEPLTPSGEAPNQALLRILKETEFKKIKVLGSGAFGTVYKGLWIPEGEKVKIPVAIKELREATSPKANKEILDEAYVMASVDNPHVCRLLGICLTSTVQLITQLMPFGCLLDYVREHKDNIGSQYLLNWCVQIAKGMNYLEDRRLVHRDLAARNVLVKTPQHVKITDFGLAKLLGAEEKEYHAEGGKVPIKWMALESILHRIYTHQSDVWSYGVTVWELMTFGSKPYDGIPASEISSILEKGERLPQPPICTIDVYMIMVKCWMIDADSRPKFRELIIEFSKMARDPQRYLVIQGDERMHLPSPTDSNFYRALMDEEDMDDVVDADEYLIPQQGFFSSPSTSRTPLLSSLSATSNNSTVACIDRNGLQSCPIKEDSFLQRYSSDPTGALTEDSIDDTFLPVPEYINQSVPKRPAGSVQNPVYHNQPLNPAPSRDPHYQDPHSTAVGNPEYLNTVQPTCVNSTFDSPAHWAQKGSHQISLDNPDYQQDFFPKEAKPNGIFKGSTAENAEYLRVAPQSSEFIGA
# TEST_DESCRIPTION: pEGFR sandwich ELISA assay (Examples B-2, B-3, Table 21)
# Type: cell-based
# EXPERIMENTAL_PARAMETERS: read-out: IC50 (uM) A431 WT (EGF stimulation)
QUANTITY_KIND: IC50 (µM)

C=CC(=O)Nc1cccc(Oc2nc(Nc3ccc(N4CCN(C)CC4)c(F)c3)nc3c2ccn3CO)c1: 9.27
C=CC(=O)Nc1cccc(Oc2nc(Nc3ccc(NC4CN(CCF)C4)cc3OC)nc3[nH]ccc23)c1: 2.02

A = C=CC(=O)Nc1cccc(Oc2nc(Nc3ccc(N4CCN(C)CC4)nc3)nc3[nH]ccc23)c1
B = C=CC(=O)Nc1cccc(Oc2nc(Nc3ccc(N4CCN(C)CC4)cc3)nc3c2ccn3CO)c1
C = C=CC(=O)Nc1cccc(Oc2nc(Nc3ccc(N4CCN(C)CC4)nc3)nc3c2ccn3CO)c1
Which order do these items take when sorted by rising IC50? List them. I'd appreciate it if you listed the labels in the requested order. A, B, C
